These entries and their values trace back to paper PMC11802874.

- PROTOCOL TEXT: Stability in human plasma
- Format: in vitro ADME
- STATED CONDITIONS: plasma (legend: pooled human serum), read-out: Stability in human plasma, t1/2
MEASUREMENT NAME: half-life at 1 µM

[in] GET /values?readout=half-life at 1 µM&item= NC(=O)c1cc(Cn2cc(-c3c(-c4ccc(Cl)cc4)nc4cc(F)ccn34)nn2)ccc1Cl
[out] > 2 h

----------
- SUBJECT OF TEST: PXR LBD (Homo sapiens, UniProt O75469)
- Sequence (O75469 146-433 limits assumed): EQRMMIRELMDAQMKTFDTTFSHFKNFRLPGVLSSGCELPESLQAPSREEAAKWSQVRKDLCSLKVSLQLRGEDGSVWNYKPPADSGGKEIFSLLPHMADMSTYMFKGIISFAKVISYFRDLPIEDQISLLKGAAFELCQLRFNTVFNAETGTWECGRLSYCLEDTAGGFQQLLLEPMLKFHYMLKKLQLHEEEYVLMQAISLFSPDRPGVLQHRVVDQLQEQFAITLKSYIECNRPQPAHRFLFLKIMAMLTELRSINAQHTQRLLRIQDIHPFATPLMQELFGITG
- PROTOCOL TEXT: TR-FRET PXR LBD competitive binding assay (LanthaScreen)
- STATED CONDITIONS: recombinant PXR LBD
MEASUREMENT NAME: pIC50
Just the number, please; pIC50 means minus log10 of the concentration in mol/L.

[in] GET /values?readout=pIC50&item= NC(=O)c1cc(Cn2cc(-c3c(-c4ccc(Cl)cc4)nc4cc(F)ccn34)nn2)ccc1Cl
[out] 7.00
